Tested on: VchCAST RNA-guided transposition machinery (E. coli BL21(DE3) host, lacZ target)
Assay: relative integration efficiency (T-RL orientation) vs wild-type transposon end (log2 (normalized fold change)); transposon end mutated: right end (5 bp flank + 75 bp right end); higher = more efficient transposition
Rule: relative integration efficiency (log2) under -3 gives 0 (no), otherwise 1 (yes).

Below are worked cases with known answers.
INSERT INTO measurements (sequence_string, label) VALUES
  ('ACATTTGTTGATACAACCATAAAATGGTAATTACACCCATACATTGATAATTATCACACCCAATTTAACTATAACGCTCTGATCATAGTCAGACCAACATTGCTACGACCCGTATTCGCACCGACAC', '1 (yes)'),
  ('ACATTTGTAAAAAAAACCATACGTTGATTTTACGAAACCATACGCTGAAATAAAAACAACCATACCTTGAAATTGCTTATAAAGTGTACAACACTTGAGAAAGTTTACTACAGGTATGCACCGACAC', '0 (no)'),
  ('ACATTTGTTGATACAACCATAAAATGATAATTACACCCATAAATTGATTCACACCCATAAATTGATATTGCCTCTGATCATAGTCAGACCAACATTGCTACGACCCGTATTCGCACCGACACTGACT', '1 (yes)'),
  ('ACATTTGTTGATACACAACTAAAATGATAATTACACCCATAAATTGATAATTATCACACCCATAAATTGATATTGCCTCTGATCATAGTCAGACCAACATTGCTACGACCCGTATTCGCACCGACAC', '0 (no)');

Shift focus to the following entry.
Please indicate if the recorded relative integration efficiency (log2) for `ACATTTGTTGATACACCCATAAATTGATATTGCCAACCATATATTGATATCTCTCAGTGGGTATTTAACTATAACGCTCTGATCATAGTCAGACCAACATTGCTACGACCCGTATTCGCACCGACAC` meets or exceeds -3.
1 (yes)
